Molecular target: Somatostatin receptor type 4 (Homo sapiens, UniProt P31391)
Sequence (P31391 whole entry): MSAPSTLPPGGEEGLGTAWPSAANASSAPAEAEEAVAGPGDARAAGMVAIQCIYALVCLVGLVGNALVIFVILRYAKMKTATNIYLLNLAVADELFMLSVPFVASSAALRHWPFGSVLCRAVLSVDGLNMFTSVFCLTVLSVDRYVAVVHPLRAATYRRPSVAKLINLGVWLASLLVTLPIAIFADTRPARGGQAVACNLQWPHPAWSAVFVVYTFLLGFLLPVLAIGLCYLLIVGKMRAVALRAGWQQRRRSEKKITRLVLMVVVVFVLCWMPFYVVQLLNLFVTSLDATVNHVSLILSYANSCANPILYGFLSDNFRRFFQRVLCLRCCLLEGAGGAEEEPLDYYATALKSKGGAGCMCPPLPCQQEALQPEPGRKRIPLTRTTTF
Assay: In vitro inhibition of radioligand binding to human somatostatin receptor (hsst4) expressed in CHO cells.
Type: cell-based
Details: cho
Kd for assorted molecules
quantity_measured: Kd (µM)

C[C@@H](O)[C@@H]1NC(=O)[C@H](CCCCN)NC(=O)[C@@H](Cc2c[nH]c3ccccc23)NC(=O)[C@H](Cc2ccccc2)NC(=O)CN(Cc2ccccc2)C(=O)[C@H](Cc2ccccc2)NC1=O | 4.68
C[C@@H](O)[C@@H]1NC(=O)[C@H](CCCCN)NC(=O)[C@@H](Cc2c[nH]c3ccccc23)NC(=O)[C@H](Cc2ccccc2)NC(=O)CN([C@@H](C)c2ccccc2)C(=O)[C@H](Cc2ccccc2)NC1=O | 2.63
C[C@H](c1ccccc1)N1CC(=O)N[C@@H](Cc2ccccc2)C(=O)N[C@H](Cc2c[nH]c3ccccc23)C(=O)N[C@@H](CCCCN)C(=O)N[C@@H]([C@@H](C)O)C(=O)N[C@@H](Cc2ccccc2)C1=O | 4.17
